# System: oilseed rape (Brassica napus)
# assay-protocol: Test C preemergence
# Type: in vivo
# experimental-setup: 250 g ai/ha, scale 0 to 100, 0 no effect, 100 complete control
reported-endpoint: Plant response rating, Oilseed Rape

Consider the reported Plant response rating, Oilseed Rape for these compounds:
compound="O=C1NCC(c2cc(F)cc(C(F)(F)F)c2)C1C(=O)Nc1cccc(F)c1F (stereo not shown)" reading=90
compound="O=C1NCC(c2cccc(OC(F)(F)C(F)F)c2)C1C(=O)Nc1cccc(F)c1F (racemic)" reading=85
compound="CN1CC(c2cccc(OC(F)(F)C(F)F)c2)C(C(=O)Nc2ccc(F)c(F)c2F)C1=O (stereo not shown)" reading=90

Kindly consider the entry below.
What Plant response rating, Oilseed Rape appears in the records for this compound with oilseed rape (Brassica napus)? O=C1NCC(c2cccc(OC(F)(F)C(F)F)c2)C1C(=O)Nc1ccc(F)c(F)c1F (racemic)
85

###

# Tested on: corn (Zea mays)
# assay-protocol: Test A postemergence
# Format: in vivo
# experimental-setup: Zea mays, post-emergence, 240 h, 500 g ai/ha, postemergence; 0 to 100 scale, 0 is no effect, 100 is complete control; read-out: Corn plant response rating
So basically: is plant injury at 500 g/ha under 30%? Then 1. Not under? Then 0.

molecule=CSc1ccccc1NC(=O)[C@H]1C(=O)N(C)C[C@@H]1c1ccc(OC(F)F)cc1 category=1

A record lists CSc1ccccc1NC(=O)C1C(=O)NCC1C=C(C)C (centres unmarked) . Is its plant injury at 500 g/ha below 30%?
1

Say whether its plant injury at 500 g/ha is strictly beneath 30%. Entry: O=C1NC[C@H](c2nccs2)[C@H]1C(=O)Nc1ccccc1F
1

Hello, I'm reviewing records and need to know if plant injury at 500 g/ha of O=C1NC[C@H](c2cccc(C(F)(F)F)c2)C1C(=O)Nc1ccccc1CO (some centres unmarked) is below 30%. Could you check?
0

###

# Test system: ivy-leaved morning glory (Ipomoea hederacea)
# assay-protocol: Test G Post-Emergence Protocol
# Format: in vivo
# experimental-setup: Ipomoea, post-emergence, 312 h, 250 g ai/ha, evaluated after 13 days, 100=total damage to plant, 0=no damage to plant, read-out: Morningglory, Ivy-leaved damage rating
Threshold 40%: pest or weed control at 250 g/ha strictly smaller gives met, otherwise not met.

Take a look at these entries with their results.
molecule="Cc1cc([C@H]2CN(C)C(=O)[C@@H]2C(=O)Nc2ccccc2S(C)(=O)=O)cc(C(F)(F)F)c1 (racemic)" target_under_test="ivy-leaved morning glory (Ipomoea hederacea)" category="not met"
molecule="CN1C[C@H](c2ccc(C(F)F)cc2)[C@@H](C(=O)Nc2cnccc2C(F)(F)F)C1=O (racemic)" target_under_test="ivy-leaved morning glory (Ipomoea hederacea)" category=met
molecule="CN1CC(c2cc(C#N)cc(OC(F)(F)F)c2)C(C(=O)Nc2cccc(F)c2F)C1=O (stereo not shown)" target_under_test="ivy-leaved morning glory (Ipomoea hederacea)" category=met
molecule="Cc1nc(Cl)ccc1NC(=O)[C@H]1C(=O)N(C)C[C@@H]1c1ccc(C(F)(F)F)cc1 (racemic)" target_under_test="ivy-leaved morning glory (Ipomoea hederacea)" category=met
molecule="C=Cc1cccc([C@@H]2CN(C)C(=O)[C@H]2C(=O)Nc2cccc(F)c2F)c1 (racemic)" target_under_test="ivy-leaved morning glory (Ipomoea hederacea)" category="not met"

Given the entry CN1C[C@H](c2cccc(C(F)(F)F)c2)[C@@H](C(=O)Nc2cnccc2S(C)(=O)=O)C1=O (racemic) , would its reported pest or weed control at 250 g/ha be below 40%?
not met
